The origin of these recorded values is the supplement of paper PMC10567573.

B1: STK38L (parent)
chain: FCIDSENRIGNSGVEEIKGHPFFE

Variants of: B1
Assay: protein stability index of a GFP-peptide fusion (GPS, HEK-293T) (PSI 1-6); higher = more stable;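 also: lentivirally expressed fusions sorted by FACS into six bins by GFP to DsRed ratio, PSI derived from sequencing read proportions per bin multiplied by bin number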
Conditions: c terminus: a fixed tail appended
Each entry below carries its reported protein stability index.
REPORTED_ENDPOINT: protein stability index

{"columns": ["MUTATION_STRING", "VALUE"],
 "data": [
  ["G19P", 1.99],
  ["F1S", 4.34],
  ["S12Q", 2.2],
  ["I9K", 2.19],
  ["V14I", 2.1],
  ["F23V", 1.85],
  ["S5M", 2.12],
  ["F22P", 4.32],
  ["V14Y", 2.96],
  ["H20N", 2.67],
  ["G19C", 1.68],
  ["G13I", 2.47],
  ["E15A", 1.99],
  ["G19D", 3.21],
  ["D4H", 2.8],
  ["F1K", 4.3],
  ["G10S", 2.39],
  ["E24N", 2.19],
  ["S12T", 2.52],
  ["N7E", 2.87],
  ["E15C", 2.68],
  ["E6Y", 1.71],
  ["I9N", 2.2],
  ["E15M", 2.51],
  ["F22G", 4.37],
  ["G13R", 2.26],
  ["S12H", 2.56],
  ["D4V", 2.22],
  ["F1Y", 2.48],
  ["V14W", 1.96]
]}
